Can you tell me growth inhibition for the items I'm about to list?
assay: NCI Yeast Anticancer Drug Screen. Data for the sgs1 mgt1 strain (AID 161);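 also: 0% = growth of cultures given vehicle only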; conditions: S. cerevisiae sgs1 mgt1 strain, at 5.0 µM (retest, dose inferred, filed as 0.5), hits give high values
This is part of a sample that, as a whole, favours compounds with a hit. Of some 79,000 tested, about 15% had one in any assay.
// units = %; emit number, no label

Request: Record request: growth inhibition value, item CC1(C)OC2OC3C(CN(CCCl)Cc4ccccc4)OC(c4ccccc4)OC3C2O1 (stereo unspecified)
Result: -10

Request: Need growth inhibition of C=CCOc1cc2c(ccc1=O)-c1c(cc(OC)c(OC)c1OC)CCC2NC(C)=O (stereo unspecified) , thanks.
Result: -18

Request: Quick one: growth inhibition of CC(C)(C)C(Br)C(=O)NC(N)=O (stereo unspecified) ?
Result: 12

Request: Fill blank: measured growth inhibition of the compound Cc1ccc(C(=O)OC(C(=O)O)C(OC(=O)c2ccc(C)cc2)C(=O)O)cc1 (stereo unspecified) (tested in a mixture with another compound) is ____.
Result: 28

Request: GET /values?readout=growth inhibition&item= CCCCCCCCCCCC[As](=O)(O)O
Result: 7

Request: Param item = CN(CCC(N)CC(=O)NC1C=CC(n2ccc(N)nc2=O)OC1C(=O)O)C(=N)N (stereo unspecified) ; retrieve measured growth inhibition.
Result: 42

Request: Name the recorded growth inhibition for O=C(CCl)OCC(Cl)Cl .
Result: 1

Request: Entry CCNc1ncc2ccccc2c1-c1ccc(N2CCN(CCCl)CC2)cc1 has what growth inhibition?
Result: 11

Request: Endpoint output: growth inhibition of CC[C@](C)(O)C(=O)O[C@H]1C(=O)O[C@@H]2C[C@H]3C(C)=CC(=O)[C@@H](O)[C@]3(C)[C@H]3[C@@]4(O)OC[C@]32[C@@H]1[C@@H](C)[C@H]4O . Value?
Result: 14

Request: // growth inhibition lookup, key: CC(C)COP(=O)(O)OCC(C)C.[Al]
Result: -5

Request: Which growth inhibition value belongs to CC(C)(C)OOC(=O)c1ccccc1 ?
Result: 14

Request: Which measured growth inhibition value corresponds to CC(C)C1(NC(=O)C2C=C3c4cccc5[nH]cc(c45)CC3N(C)C2)OC2(O)C3CCCN3C(=O)C(Cc3ccccc3)N2C1=O (stereo unspecified) ?
Result: -2

Request: Name the recorded growth inhibition for C=Cc1cc(OC)c2c(c1)c(=O)oc1c2cc(OC)c2c(O)ccc(C3OC(C)C(O)C(C)(O)C3O)c21 (stereo unspecified) .
Result: 97

Request: What measured growth inhibition goes with c1cc2c(cc1NC1=NCCO1)CCCC2 ?
Result: -1

Request: Return reported growth inhibition; argument: CCCCCCCC[N+](CCCC)(CCCC)CCCC (tested in a mixture with another compound)
Result: 100

Request: Reported growth inhibition, compound CCC[CH2][Pb]([CH2]CCC)([O]C(C)=O)[O]C(C)=O : ____
Result: 99

Request: Please look up its growth inhibition: COc1ccc(NP(=S)(Nc2ccc(OC)cc2)c2ccccc2)cc1
Result: 6

Request: Look at this compound and give its reported growth inhibition. C/C(=N\NC(N)=O)C(CN1CCOCC1)C(c1ccccc1)c1c(O)c2ccccc2oc1=O (stereo unspecified)
Result: 89

Request: Need growth inhibition of O=P(Nc1cccc(Cl)c1)(Oc1ccccc1)N(CCCl)CCCl (stereo unspecified) , thanks.
Result: 43

Request: growth inhibition lookup needed for CCC1(C2=CCCCC2)C(=O)NC(=S)NC1=O , thanks.
Result: 22

Request: Returns the measured growth inhibition for the input compound. Input: c1ccc(C(C(=Nc2ccc(Cc3ccc(N=C(C(c4ccccc4)c4ccccc4)N4CC4)cc3)cc2)N2CC2)c2ccccc2)cc1
Result: 5
